Property: Immobility time; scope: individual compounds
- Test system: tail suspended mice
- METHOD NOTES: Tail suspension test in mice
- Format: in vivo, Male ICR mice
- CONDITION SUMMARY: 5 mg/kg i.p., 30 min before test; last 4 min of 6 min
Please provide the amount together with its unit, number first.

>  <COMPOUND>
CN(C)CCC(Oc1cccc2c1OCO2)c1cccs1.O=C(O)C(=O)O (stereo not shown) [Compound I1]

>  <Immobility time>
20.2 ± 17.1 s

$$$$
>  <COMPOUND>
CNCCC(Oc1cccc2c1OCO2)c1ccco1.O=C(O)C(=O)O (stereo not shown) [Compound I7]

>  <Immobility time>
21.9 ± 21.5 s

$$$$
>  <COMPOUND>
CNCCC(Oc1cccc2c1OCO2)c1cccs1.O=C(O)C(=O)O (stereo not shown) [Compound I2]

>  <Immobility time>
20.8 ± 32.1 s

$$$$

Consider the additional compound presented here.
Exam item: Request body: readout Immobility time, system tail suspended mice, query CN(C)CCC(Oc1cccc2c1OCO2)c1ccco1.O=C(O)C(=O)O (stereo not shown) [Compound I6] . Return the value.
Marked response: 53.9 ± 46.9 s
